# Test System: human ether-à-go-go-related gene (hERG) potassium channel (human);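 also: peak tail current of the secondary pulse compared with the same well before compound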
# Sequence (Q12809 whole entry, looked up): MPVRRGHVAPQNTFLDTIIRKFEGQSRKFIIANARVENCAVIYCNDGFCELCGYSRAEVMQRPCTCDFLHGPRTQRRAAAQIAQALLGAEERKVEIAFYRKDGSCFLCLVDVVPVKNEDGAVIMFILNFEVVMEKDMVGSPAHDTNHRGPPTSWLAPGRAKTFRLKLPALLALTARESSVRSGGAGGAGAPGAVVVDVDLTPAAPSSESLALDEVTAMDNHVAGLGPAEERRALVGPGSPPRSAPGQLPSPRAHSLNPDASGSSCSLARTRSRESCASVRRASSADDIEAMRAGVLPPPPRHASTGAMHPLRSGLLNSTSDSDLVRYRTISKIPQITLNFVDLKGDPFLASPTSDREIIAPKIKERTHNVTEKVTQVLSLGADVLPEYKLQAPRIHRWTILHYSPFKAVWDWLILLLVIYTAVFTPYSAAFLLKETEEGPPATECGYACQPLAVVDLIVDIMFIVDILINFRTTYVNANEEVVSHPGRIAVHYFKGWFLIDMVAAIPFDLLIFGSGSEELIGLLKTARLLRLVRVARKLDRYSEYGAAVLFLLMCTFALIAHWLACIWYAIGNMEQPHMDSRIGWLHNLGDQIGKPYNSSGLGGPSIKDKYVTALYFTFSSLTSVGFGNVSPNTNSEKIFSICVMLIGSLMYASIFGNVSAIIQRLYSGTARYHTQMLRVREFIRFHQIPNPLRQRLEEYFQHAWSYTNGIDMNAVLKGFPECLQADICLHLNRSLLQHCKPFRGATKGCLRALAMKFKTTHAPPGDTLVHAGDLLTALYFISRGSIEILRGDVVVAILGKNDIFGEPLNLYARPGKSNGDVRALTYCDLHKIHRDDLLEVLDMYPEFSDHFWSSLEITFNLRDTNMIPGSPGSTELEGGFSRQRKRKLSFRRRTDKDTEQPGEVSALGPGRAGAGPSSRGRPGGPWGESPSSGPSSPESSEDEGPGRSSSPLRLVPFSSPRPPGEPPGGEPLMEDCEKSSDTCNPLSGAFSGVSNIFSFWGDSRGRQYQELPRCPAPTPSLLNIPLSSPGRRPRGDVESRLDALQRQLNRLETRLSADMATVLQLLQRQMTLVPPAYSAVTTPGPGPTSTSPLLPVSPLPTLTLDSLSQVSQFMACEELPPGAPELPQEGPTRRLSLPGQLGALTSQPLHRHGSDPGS
# Protocol: primary screen, population patch clamp on CHO cells stably expressing hERG; higher = less effect of the substance
Among all 310,000 compounds or so, about 14,000 (4.5%) showed an effect of 50% or more. Effects have a minus sign here. Shown is part of a subset that was picked to be rich in strong results.
Please note: True applies when hERG current change (%, negative = inhibition) at 10uM is -50% or greater, and False applies otherwise.

1. O=C(NC1CCCCC1)C(c1ccc2ncccc2c1)N(Cc1ccc2c(c1)OCO2)C(=O)c1cccs1 (centres unmarked); True
2. CCN(CC(=O)NCc1ccc(Cl)cc1)C(=O)/C=C/c1ccc(C#N)cc1; False
3. COc1ccc(CN(C(=O)c2cccs2)C(C(=O)NC2CCCCC2)c2ccc3ncccc3c2)cc1 (centres unmarked); True
4. O=C(NC1CCCCC1)C(c1ccc2ncccc2c1)N(Cc1ccccc1)C(=O)c1cccs1 (centres unmarked); False
5. O=C(NC1CCCCC1)C(c1cccs1)N(Cc1cccs1)C(=O)c1cccs1 (centres unmarked); True

Say whether CCC(NC(=O)c1ccccc1NC(=O)c1ccco1)C(=O)NNC(=O)c1ccncc1 (centres unmarked) shows hERG current change (%, negative = inhibition) at 10uM of -50% or more.
True

Say whether C=CCN1C(=O)S/C(=C/c2ccc(Sc3nc4ccccc4[nH]3)o2)C1=O shows hERG current change (%, negative = inhibition) at 10uM of -50% or more.
True

Reference source: paper PMC4336329
